Structures can show the parent of a compound that is named as a salt.
melting point listing for selected molecules.
quantity measured: melting point

molecule="CCCCN1CCN(C2=Nc3cc(Cl)ccc3Oc3ccccc32)CC1 [Example 10]" obs_value="97 to 98 °C"
molecule="CC(C)N1CCN(C2=Nc3cc(C(F)(F)F)ccc3Oc3ccccc32)CC1 (as salt: HCl) [Example 4]" obs_value="270 °C (dec.)"
molecule="OCCN1CCN(C2=Nc3cc(Cl)ccc3Sc3ccccc32)CC1 [Example 13]" obs_value="110 to 111 °C"
molecule="CCCN1CCN(C2=Nc3cc(Cl)ccc3Oc3ccccc32)CC1 [Example 8]" obs_value="90 to 91 °C"
molecule="CC(C)N1CCN(C2=Nc3cc(Cl)ccc3Oc3ccccc32)CC1 [Example 9]" obs_value="55 to 56 °C"
molecule="CCCCN1CCN(C2=Nc3cc(C(F)(F)F)ccc3Oc3ccccc32)CC1 (as salt: HCl) [Example 5]" obs_value="240 °C (dec.)"
molecule="CCN1CCN(C2=Nc3cc(C(F)(F)F)ccc3Oc3ccccc32)CC1 [Example 1]" obs_value="76 to 77 °C"
molecule="CCN1CCN(C2=Nc3cc(Cl)ccc3Sc3ccccc32)CC1 [Example 12]" obs_value="100 to 101 °C"
molecule="OCCN1CCN(C2=Nc3cc(Cl)ccc3Oc3ccccc32)CC1 [Example 7]" obs_value="149 to 150 °C"
molecule="OCCN1CCN(C2=Nc3cc(C(F)(F)F)ccc3Oc3ccccc32)CC1 [Example 2]" obs_value="110 to 111 °C"
